# tested system: HIV-1 Env of isolate MGRM-F1-018 (subtype F) (HIV-1)
# experiment description: cell-based or functional assay
property: IC50 (neutralization) (µg/mL)
Kindly provide the numeric value in µg/mL only, without the unit symbol.

q: Fill in the blank: the reported IC50 (neutralization) of PGT-127 (antibody, V domains shown) VH: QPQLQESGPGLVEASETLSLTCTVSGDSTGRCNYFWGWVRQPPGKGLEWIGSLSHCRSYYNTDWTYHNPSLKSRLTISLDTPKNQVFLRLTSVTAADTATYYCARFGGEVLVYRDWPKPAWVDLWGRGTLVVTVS VL: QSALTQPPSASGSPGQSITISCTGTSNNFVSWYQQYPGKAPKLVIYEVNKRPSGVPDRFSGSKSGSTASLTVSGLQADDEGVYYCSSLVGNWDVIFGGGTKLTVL is ____.
a: 3.59

Numbers sourced from patent US20160264649A1.
